# experimental_target: His-tagged recombinant human Gal-3 (hGal-3) (Homo sapiens, UniProt P17931)
# Sequence (P17931 whole entry): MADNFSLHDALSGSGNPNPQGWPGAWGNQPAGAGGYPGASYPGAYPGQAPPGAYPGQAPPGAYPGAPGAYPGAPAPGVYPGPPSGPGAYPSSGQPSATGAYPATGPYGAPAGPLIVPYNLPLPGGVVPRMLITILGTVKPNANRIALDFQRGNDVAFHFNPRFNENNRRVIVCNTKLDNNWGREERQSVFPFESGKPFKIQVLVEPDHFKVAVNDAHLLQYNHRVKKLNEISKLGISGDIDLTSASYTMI
# test: Gal-3 HTRF assay (hGal-3 / B-ASF binding inhibition)
# experimental_setup: table of Examples 5 to 25
measured_parameter: IC50 (nM)

Recorded IC50, per entry:
- Cc1nc([C@@H]2O[C@H](CO)[C@H](O)[C@H](n3cc(-c4ccc(Br)c(F)c4C)nn3)[C@H]2O)n(-c2cc(Cl)ccc2C(F)(F)F)n1 [Example 16]: 74
- Cc1nc([C@@H]2O[C@H](CO)[C@H](O)[C@H](n3cc(-c4ccc(Cl)c(Cl)c4F)nn3)[C@H]2O)n(-c2cc(Cl)ccc2C(F)(F)F)n1 [Example 7]: 6
- Cc1nc([C@@H]2O[C@H](CO)[C@H](O)[C@H](n3cc(-c4ccc(Cl)c(F)c4Cl)nn3)[C@H]2O)n(-c2cc(Cl)ccc2C(F)(F)F)n1 [Example 11]: 14
- Cc1nc([C@@H]2O[C@H](CO)[C@H](O)[C@H](n3cc(-c4ccc(Br)c(F)c4F)nn3)[C@H]2O)n(-c2cc(Cl)ccc2C2CC2)n1 [Example 23]: 20
- CO[C@@H]1[C@@H](n2cc(-c3ccc(Cl)c(F)c3F)nn2)[C@@H](O)[C@@H](CO)O[C@H]1c1nc(C)nn1-c1ccc2ncsc2c1 [Example 21]: 10
- Cc1nc([C@@H]2O[C@H](CO)[C@H](O)[C@H](n3cc(-c4ccc(Br)c(Cl)c4F)nn3)[C@H]2O)n(-c2cc(Cl)ccc2C(F)(F)F)n1 [Example 15]: 96
- Cc1nc([C@@H]2O[C@H](CO)[C@H](O)[C@H](n3cc(-c4ccc5ccccc5c4F)nn3)[C@H]2O)n(-c2cc(Cl)ccc2C(F)(F)F)n1 [Example 6]: 62
- Cc1nc([C@@H]2O[C@H](CO)[C@H](O)[C@H](n3cc(-c4ccc(Cl)c(F)c4F)nn3)[C@H]2O)n(-c2cc(Cl)cnc2C(F)(F)F)n1 [Example 22]: 55
- COc1cc(-c2cn([C@H]3[C@@H](O)[C@@H](CO)O[C@@H](c4nc(C)nn4-c4cc(Cl)ccc4C(F)(F)F)[C@@H]3O)nn2)cc(F)c1Br [Example 19]: 23
- Cc1nc([C@@H]2O[C@H](CO)[C@H](O)[C@H](n3cc(-c4ccc(Cl)c(F)c4F)nn3)[C@H]2O)n(-c2ccc3ncsc3c2)n1 [Example 20]: 9

I: Cc1nc([C@@H]2O[C@H](CO)[C@H](O)[C@H](n3cc(-c4ccc(C#N)c(F)c4F)nn3)[C@H]2O)n(-c2cc(Cl)ccc2C(F)(F)F)n1 [Example 13]
II: Cc1nc([C@@H]2O[C@H](CO)[C@H](O)[C@H](n3cc(-c4ccc(Br)cc4F)nn3)[C@H]2O)n(-c2cc(Cl)ccc2C(F)(F)F)n1 [Example 12]
Task: I or II : whose IC50 is greater? State your choice using its label.
Result: II

Source listed as patent US12275719B2.
